// IC50, inhibition of rHMG1 stimulated IL-12 release from human PBMC lookup, one value per entry
Molecular target: T1, recombinant HMG1 purified from E. coli as a calmodulin binding protein (CBP) fusion protein (human, UniProt A9RA84 1-215 (Papio anubis entry))
T1 sequence: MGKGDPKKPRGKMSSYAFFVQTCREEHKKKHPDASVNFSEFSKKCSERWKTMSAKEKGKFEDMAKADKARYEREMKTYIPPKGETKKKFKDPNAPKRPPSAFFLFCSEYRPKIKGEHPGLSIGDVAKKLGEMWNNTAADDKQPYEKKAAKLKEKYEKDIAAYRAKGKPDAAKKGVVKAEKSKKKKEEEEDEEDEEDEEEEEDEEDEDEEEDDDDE
Experiment: cell-based or functional assay
parameter_measured: IC50, inhibition of rHMG1 stimulated IL-12 release from human PBMC (µg/mL)

{"columns": ["binder", "unit_symbol", "obs_value"],
 "data": [
  ["anti-HMG1 antibody S16 (antibody, V domains shown, also called ATCC PTA-6259) VH: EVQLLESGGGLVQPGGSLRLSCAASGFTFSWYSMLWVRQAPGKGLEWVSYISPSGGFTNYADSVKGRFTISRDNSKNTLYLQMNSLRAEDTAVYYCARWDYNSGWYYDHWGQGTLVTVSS VL: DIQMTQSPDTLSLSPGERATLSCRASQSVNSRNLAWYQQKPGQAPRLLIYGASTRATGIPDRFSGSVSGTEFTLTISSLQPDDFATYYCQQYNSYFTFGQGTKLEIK", "µg/mL", 1.24],
  ["anti-HMG1 antibody G4 (antibody, V domains shown, also called ATCC PTA-6258) VH: EVQLLESGGGLVQPGGSLRLSCAASGFTFSWYDMTWVRQAPGKGLEWVSSISPSGGYTKYADSVKGRFTISRDNSKNTLYLQMNSLRAEDTAVYYCTTEFYDYLDVWGKGTTVTVSS VL: DIQMTQSPGTLSLSPGEGATLSCRASQSVSSTYLAWYQQKPGQAPRLLIYEASKRATGTPARFSGSGSGTDFTLSISSLEPEDFAVYYCQHRHNWPPQWTFGQGTKVEVK", "µg/mL", 0.715],
  ["anti-HMG1 antibody G2 (antibody, V domains shown) VH: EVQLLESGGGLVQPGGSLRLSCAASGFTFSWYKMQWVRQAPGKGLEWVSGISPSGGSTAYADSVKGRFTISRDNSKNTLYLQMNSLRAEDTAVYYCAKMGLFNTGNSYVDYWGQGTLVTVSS VL: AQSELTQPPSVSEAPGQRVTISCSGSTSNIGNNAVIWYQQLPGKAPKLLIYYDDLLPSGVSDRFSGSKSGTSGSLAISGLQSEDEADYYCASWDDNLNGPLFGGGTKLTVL", "µg/mL", 1.26],
  ["anti-HMG1 antibody S10 (antibody, V domains shown) VH: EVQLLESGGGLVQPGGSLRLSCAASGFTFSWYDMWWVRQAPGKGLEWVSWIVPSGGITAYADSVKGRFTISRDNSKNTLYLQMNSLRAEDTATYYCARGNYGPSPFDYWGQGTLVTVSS VL: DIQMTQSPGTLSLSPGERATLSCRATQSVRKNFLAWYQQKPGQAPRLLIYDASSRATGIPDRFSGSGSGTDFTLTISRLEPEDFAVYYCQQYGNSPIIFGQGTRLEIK", "µg/mL", 1.13],
  ["anti-HMG1 antibody G12 (antibody, V domains shown) VH: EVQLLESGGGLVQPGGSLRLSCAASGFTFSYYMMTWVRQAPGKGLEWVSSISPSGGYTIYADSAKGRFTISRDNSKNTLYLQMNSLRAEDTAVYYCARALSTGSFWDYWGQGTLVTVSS VL: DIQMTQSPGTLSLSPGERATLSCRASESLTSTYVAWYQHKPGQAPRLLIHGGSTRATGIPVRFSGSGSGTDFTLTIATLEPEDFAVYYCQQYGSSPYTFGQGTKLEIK", "µg/mL", 2.79]
]}
